Reference source for all entries: paper PMC5540273

# Tested on: p38-gamma
# Construct: gene MAPK12
# condition-info: concentration: 1 μM,replicates: in singlicate; n = 1;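 further: KINOMEscan kinase panel screen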
value-type: %Inh (%)
Give just the numeric value; % need not be written.

[
  {
    "molecule": "CNC(=O)c1ccccc1Nc1nc(Nc2cccc(CS(C)(=O)=O)c2)ncc1C.O=CO [GSK1520489]",
    "unit-of-measure": "%",
    "%Inh": 0
  },
  {
    "molecule": "C[C@@H]1CNc2c(sc3ccc4nc(-c5ccncc5)ccc4c23)C(=O)N1",
    "unit-of-measure": "%",
    "%Inh": 16
  },
  {
    "molecule": "Nc1nccc(-c2ccc3c(N)n[nH]c3c2)n1 [GSK1034945]",
    "unit-of-measure": "%",
    "%Inh": 0
  }
]

**Q:** What does the data say about its %Inh? Entry: CN1CCN(CCNc2nc3cc(Oc4ccc(NC(=O)Nc5cc(C(F)(F)F)ccc5F)cc4)ccc3[nH]2)CC1.Cl.Cl [GW768504]
**A:** 27

**Q:** Lookup COc1cccc(CNC(=O)NC2CCN(c3ccnc(Nc4cc(OC)c(OC)c(OC)c4)n3)C2)c1 (stereo not shown) [GSK1379765]
**A:** 1

**Q:** Lookup c1ccc(Oc2ccc(Nc3ccnc4ccc(-c5ccccn5)cc34)cc2)cc1 [GW407034]
**A:** 0

**Q:** Lookup COC(=O)Nc1nc2cc(Oc3ccc(NC(=O)Nc4cc(C(F)(F)F)ccc4Cl)cc3)ccc2[nH]1.Cl [GW697465]
**A:** 0

**Q:** Lookup C[C@@H](Oc1cc(-n2cnc3cc(-c4cnn(C)c4)ccc32)sc1C(N)=O)c1ccccc1Cl [GSK580432]
**A:** 0

**Q:** Lookup CCN1CCN(CCCC(=O)Nc2n[nH]c3nc(-c4ccc(O)cc4)c(Br)cc23)CC1 [SB-731579]
**A:** 0

**Q:** Lookup COc1cc2nccc(Nc3ccc(Oc4ccccc4)cc3)c2cc1OC.Cl [GI261656]
**A:** 0

**Q:** Lookup C[C@@H](Oc1cc(-n2cnc3cc(-c4ccncc4)ccc32)sc1C(N)=O)c1ccccc1Cl [GSK479719]
**A:** 0

**Q:** Lookup Cc1cccc2c(-c3ccncc3)c(-c3ccc(F)cc3)nn12.Cl [GW461487]
**A:** 17

**Q:** Lookup Cc1ccn2nc(-c3ccc(F)cc3)c(-c3ccncc3)c2c1.Cl [GW457859]
**A:** 30

* * *

# System: PLK2
# condition-info: concentration: 1 μM,replicates: in singlicate; n = 1
Recorded %Inh for the following compounds
Give just the numeric value; % need not be written.

// below: answered compounds
[
  {
    "compound-structure-string": "Cc1n[nH]c2cc(Nc3ccnc(Nc4cccc(CN5CCOCC5)c4)n3)ccc12",
    "unit-of-measure": "%",
    "test-value": 15
  },
  {
    "compound-structure-string": "OCCn1cc(-c2cnc3nnn(Cc4ccc5ncccc5c4)c3n2)cn1",
    "unit-of-measure": "%",
    "test-value": 0
  },
  {
    "compound-structure-string": "C[C@@H]1CCN(C(=O)N2CCCC2)C[C@@H]1N(C)c1ncnc2[nH]ccc12",
    "unit-of-measure": "%",
    "test-value": 20
  },
  {
    "compound-structure-string": "C[C@@H](Oc1cc(-n2cnc3cc(-c4ccncc4)ccc32)sc1C(N)=O)c1ccccc1Cl",
    "unit-of-measure": "%",
    "test-value": 99.5
  },
  {
    "compound-structure-string": "CN(c1ccc2c(c1)nc(NCc1ccc(F)cc1)n2C)c1ccnc(Nc2ccc(CS(C)(=O)=O)cc2)n1.Cl",
    "unit-of-measure": "%",
    "test-value": 3
  },
  {
    "compound-structure-string": "CS(=O)(=O)c1cccc(CNc2nc(Nc3ccc4c(c3)[C@@H]3C[C@@H]4CNC3=O)ncc2C(F)(F)F)c1",
    "unit-of-measure": "%",
    "test-value": 0
  }
]

**Q:** What does the data say about its %Inh? Entry: CNC(=O)c1ccccc1Nc1nc(Nc2cccc(CS(C)(=O)=O)c2)ncc1C.O=CO
**A:** 68

**Q:** Lookup Nc1nccc(-c2ccc3c(N)n[nH]c3c2)n1
**A:** 0

* * *

# Tested on: MEK2
# Construct: gene MAP2K2
# condition-info: concentration: 1 μM,replicates: in singlicate; n = 1
Recorded %Inh for the following compounds

// below: answered compounds
[
  {
    "compound": "COc1cc(Nc2nccc(N3CCC(NC(=O)c4cccc(C#N)c4)C3)n2)cc(OC)c1OC (stereo not shown) [GSK1379751]",
    "test-value": "0%"
  },
  {
    "compound": "Cc1cccc2c(-c3ccncc3)c(-c3ccc(F)cc3)nn12.Cl [GW461487]",
    "test-value": "0%"
  },
  {
    "compound": "COc1cc2c(Nc3ccc(NC(=O)c4ccccc4)cc3)ncnc2cc1OCCCN1CCOCC1 [GSK301329]",
    "test-value": "86%"
  }
]

Here is another compound to look at.
**Q:** What does the data say about its %Inh? Entry: CC(=O)Nc1nc2cnc(Nc3cc(NC(=O)c4cccc(CC(C)(C)C#N)c4)ccc3C)nc2s1
**A:** 6%

* * *

# Test system: BRK
# Construct: gene PTK6
# condition-info: concentration: 1 μM,replicates: in singlicate; n = 1
value-type: %Inh (%)
Give just the numeric value; % need not be written.

// below: answered compounds
[
  {
    "compound": "Cn1ccc2ncnc(Oc3ccc(NC(=O)Nc4cc(C(C)(C)C)on4)c(Cl)c3)c21",
    "test-value": 10
  },
  {
    "compound": "FC(F)(F)c1cc(Br)cc(Nc2nccc(-c3cnn4ncccc34)n2)c1 [GW810578]",
    "test-value": 0
  },
  {
    "compound": "C[C@@H](Oc1cc(-n2cnc3cc(-c4cnn(C)c4)ccc32)sc1C(N)=O)c1ccccc1Cl [GSK580432]",
    "test-value": 0
  }
]

Here is another compound to look at.
**Q:** What does the data say about its %Inh? Entry: COc1cc2c(Nc3ccc(NC(=O)c4ccccc4)cc3)ncnc2cc1OCCCN1CCOCC1 [GSK301329]
**A:** 77

* * *

# System: AMPK-alpha1
# Construct: gene PRKAA1
# condition-info: concentration: 1 μM,replicates: in singlicate; n = 1
Recorded %Inh for the following compounds
Give just the numeric value; % need not be written.

[
  {
    "compound": "COc1cccc(OC)c1C(=O)Nc1cccc(-c2nn3ccccc3c2-c2ccnc(Nc3cccc(F)c3)n2)c1",
    "unit-of-measure": "%",
    "%Inh": 25
  },
  {
    "compound": "Cc1nnc(-c2ccc3occ(-c4ccc(S(C)=O)cc4)c3n2)o1 (centres unmarked)",
    "unit-of-measure": "%",
    "%Inh": 0
  },
  {
    "compound": "NC(=O)c1ccc(-c2cc3ncnc(SCC(=O)O)c3s2)cc1",
    "unit-of-measure": "%",
    "%Inh": 0
  },
  {
    "compound": "Cc1ccc(Nc2ccnc(Nc3ccc4c(c3)CS(=O)(=O)C4)n2)cc1O.Cl",
    "unit-of-measure": "%",
    "%Inh": 10
  }
]

Here is another compound to look at.
**Q:** Short answer please: %Inh, AMPK-alpha1, entry CN(c1ccccc1CNc1nc(Nc2ccc3c(c2)CC(=O)N3)ncc1C(F)(F)F)S(C)(=O)=O
**A:** 74

* * *

# System: ARK5
# Construct: gene NUAK1
# condition-info: concentration: 1 μM,replicates: in singlicate; n = 1
value-type: %Inh (%)
Give just the numeric value; % need not be written.

// below: answered compounds
[
  {
    "compound": "O=C(NOCC1CC1)c1cc(Br)c(F)c(F)c1Nc1ccc(I)cc1Cl",
    "target": "ARK5",
    "unit-of-measure": "%",
    "%Inh": 12
  },
  {
    "compound": "CC(=O)c1c(-c2ccncc2)[nH]c(-c2ccncc2)c1C",
    "target": "ARK5",
    "unit-of-measure": "%",
    "%Inh": 3
  },
  {
    "compound": "C[C@@H](Oc1cc(-n2cnc3ccc(-c4ccncc4)cc32)sc1C(N)=O)c1ccccc1Cl",
    "target": "ARK5",
    "unit-of-measure": "%",
    "%Inh": 0
  },
  {
    "compound": "FC(F)(F)c1cc(Br)cc(Nc2nccc(-c3cnn4ncccc34)n2)c1",
    "target": "ARK5",
    "unit-of-measure": "%",
    "%Inh": 40
  },
  {
    "compound": "Cn1cc(-c2cccc3c(N)c(C(N)=O)nnc23)cn1",
    "target": "ARK5",
    "unit-of-measure": "%",
    "%Inh": 0
  },
  {
    "compound": "Cc1ccc2c(-c3ccnc(Nc4ccc(C(F)(F)F)cc4)n3)cnn2n1",
    "target": "ARK5",
    "unit-of-measure": "%",
    "%Inh": 0
  },
  {
    "compound": "Cc1ccc(Nc2ccnc(Nc3ccc4c(c3)CS(=O)(=O)C4)n2)cc1O.Cl",
    "target": "ARK5",
    "unit-of-measure": "%",
    "%Inh": 25
  },
  {
    "compound": "O=C(Nc1ccccc1)c1cccc(Oc2ccc3nccn3n2)c1",
    "target": "ARK5",
    "unit-of-measure": "%",
    "%Inh": 0
  },
  {
    "compound": "COC(=O)c1cccc(NC(=O)NC2CCN(c3ccnc(Nc4cc(OC)c(OC)c(OC)c4)n3)C2)c1 (stereo not drawn)",
    "target": "ARK5",
    "unit-of-measure": "%",
    "%Inh": 10
  },
  {
    "compound": "Nc1nccc(-c2ccc3c(N)n[nH]c3c2)n1",
    "target": "ARK5",
    "unit-of-measure": "%",
    "%Inh": 0
  }
]

**Q:** Short answer please: %Inh, ARK5, entry COc1cc(Nc2nccc(N3CCC(NC(=O)c4cccc(C#N)c4)C3)n2)cc(OC)c1OC (stereo not drawn)
**A:** 26

**Q:** Lookup COc1cc2ncn(-c3cc(OCC4CCCCC4)c(C(N)=O)s3)c2cc1OC
**A:** 0

**Q:** Lookup CC(C)c1nc(-c2cccc(NS(=O)(=O)c3ccccc3)c2)c(-c2ccnc(Nc3ccc4c(c3)CN(C)CC4)n2)s1
**A:** 6

**Q:** Lookup Cn1ccc2ncnc(Oc3ccc(NC(=O)Nc4cccc(C(F)(F)F)c4)c(F)c3)c21
**A:** 5
